Origin of the recorded values: patent US5641629

- system: neutrophil elastase (Homo sapiens, UniProt P08246 P08246:30-267)
- Sequence (P08246 30-267, one chain of several): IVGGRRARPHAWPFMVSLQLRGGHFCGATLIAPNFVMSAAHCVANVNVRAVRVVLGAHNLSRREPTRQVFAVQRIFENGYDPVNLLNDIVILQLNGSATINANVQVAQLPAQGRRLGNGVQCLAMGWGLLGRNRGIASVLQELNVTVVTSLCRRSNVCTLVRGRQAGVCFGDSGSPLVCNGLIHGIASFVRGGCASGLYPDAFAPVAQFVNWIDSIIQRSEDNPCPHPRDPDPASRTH
- experimental-details: FP; 150 mM NaCl, 2 mM MgCl2, 6 mM KCl, 10 mM Tris, pH 7.0, room temperature; delta mP +30
- condition-summary: tags: Athens Research Technology; label: 5'-fluorescein (6-FAM, C6 linker)
metric: pKd
Please treat pKd as minus the base-10 logarithm of the molar concentration.

In: What does the data say about its pKd? Entry: TAGCGATACTGCGTGGGTTGGGGCGGGTAGGGCCAGCAGTCTCGT (ssDNA) [Compound 5]
Out: 8.59
